- target_entity: recombinant human-MT1 receptor (Homo sapiens)
- Construct: expressed in transfected cells; host or cells: unnamed cell line stably overexpressing human MT1, co-expressing mitochondrial apoaequorin and Gα16
- experiment: In vitro MT1 screening, agonist activity (AequoScreen aequorin luminescence)
- Assay type: cell-based
- cond: 1 nM compound; percentage of activity relative to the reference agonist at the EC100 concentration; read-out: Agonism percentages of MT1, 1 nM
Recorded activation at 0.001 µM determines the group label, using bucket 1 = under 20%, bucket 2 = from 20% up to 40%, bucket 3 = 40% and over

Examples from the recorded data:
Asked: Categorize the following entry: CCCCC(=O)NCC(C)c1c[nH]c2cc(F)c3c(c12)CC(C)O3 (stereo not shown) [Compound 39]
Given back: bucket 2

Asked: Categorize the following entry: CCOC(=O)NCCc1c[nH]c2cc(F)c3c(c12)CC(C)O3 (stereo not shown) [Compound 30]
Given back: bucket 1

Asked: Categorize the following entry: CCNC(=O)NCCc1c[nH]c2cc(F)c3c(c12)CC(C)O3 (stereo not shown) [Compound 33]
Given back: bucket 2

Next molecule, please.
Asked: Categorize the following entry: CCC(=O)NCC[C@@H]1CCc2ccc3c(c21)CCO3 [Ramelteon, reference compound]
Given back: bucket 3

---

- target_entity: recombinant human-MT1 receptor (Homo sapiens, UniProt P48039)
- Construct: expressed in transfected cells; host or cells: unnamed cell line stably overexpressing human MT1, co-expressing mitochondrial apoaequorin and Gα16
- Sequence (P48039 whole entry): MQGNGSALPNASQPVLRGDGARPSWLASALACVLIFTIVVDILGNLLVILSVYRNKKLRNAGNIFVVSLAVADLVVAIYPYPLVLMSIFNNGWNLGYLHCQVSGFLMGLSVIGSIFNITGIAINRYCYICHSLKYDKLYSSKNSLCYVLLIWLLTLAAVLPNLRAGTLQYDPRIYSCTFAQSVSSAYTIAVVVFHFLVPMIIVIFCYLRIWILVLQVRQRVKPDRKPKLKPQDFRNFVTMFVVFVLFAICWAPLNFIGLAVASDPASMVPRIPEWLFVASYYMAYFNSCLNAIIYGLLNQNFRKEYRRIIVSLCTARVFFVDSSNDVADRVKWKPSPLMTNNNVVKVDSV
- experiment: In vitro MT1 screening, agonist activity (AequoScreen aequorin luminescence)
- Format: cell-based
- cond: 100 nM compound; percentage of activity relative to the reference agonist at the EC100 concentration; read-out: Agonism percentages of MT1, 100 nM
- Description: To proceed with compound screening over MT1 receptor, a cell line characterised by a stable overexpression of recombinant human-MT1 receptor was used. This line co-expresses mitochondrial apoaequorin and subunit Gα16. […] Agonist activity was calculated as percentage of activity relative to the reference agonist at the EC100 concentration. Activity of antagonists was expressed as the inhibition percentage over the activity of reference agonist at its EC80, concentration.
endpoint: activation at 0.1 µM (%)
Your answer is read as %, so omit the unit and give the number.

Asked: Quick one: activation at 0.1 µM of CCNC(=O)NCCc1c[nH]c2cc(F)c3c(c12)CC(C)O3 (stereo not shown) [Compound 33] ?
Given back: 87.5

Asked: Quick one: activation at 0.1 µM of CCCCC(=O)NCC(C)c1c[nH]c2cc(F)c3c(c12)CC(C)O3 (stereo not shown) [Compound 39] ?
Given back: 91.4

Asked: Quick one: activation at 0.1 µM of CC(C)CC(=O)NCCc1c[nH]c2cc(F)c3c(c12)CC(C)O3 (stereo not shown) [Compound 31] ?
Given back: 90.4

Asked: Quick one: activation at 0.1 µM of CC1Cc2c(c(F)cc3[nH]cc(CCNC(=O)C4CC4)c23)O1 (stereo not shown) [Compound 27] ?
Given back: 91.1

Asked: Quick one: activation at 0.1 µM of CCNC(=O)NCC(C)c1c[nH]c2cc(F)c3c(c12)CC(C)O3 (stereo not shown) [Compound 42] ?
Given back: 87.8

Next:
Asked: Quick one: activation at 0.1 µM of CC(C)CC(=O)NCC(C)c1c[nH]c2cc(F)c3c(c12)CC(C)O3 (stereo not shown) [Compound 36] ?
Given back: 89.7

Asked: Quick one: activation at 0.1 µM of CC(=O)NCC(C)c1c[nH]c2cc(F)c3c(c12)CC(C)O3 (stereo not shown) [Compound 21] ?
Given back: 92.6
